# maps each entry to its MIC
Test system: P. aeruginosa
test-protocol: microbe, parasite or virus in culture
experimental-setup: Pseudomonas aeruginosa, read-out: BMD MIC, P. aeruginosa FADDI-070, MDR; PmxR; MHB/CAMHB; mode of 6 replicates

compound | reading-qualifier | MIC, µg/mL
C[C@@H](O)[C@H]1C(=O)N2C(C(=O)O)=C(S[C@@H]3CN[C@H](C(=O)N(C)C)C3)[C@H](C)[C@H]12 [Meropenem, meropenem, reference compound] | = | 1
COc1cc(Cc2cnc(N)nc2N)cc(OC)c1OC | = | 64
CC(C)(O/N=C(\C(=O)N[C@@H]1C(=O)N2C(C(=O)[O-])=C(C[n+]3ccccc3)CS[C@H]12)c1csc(N)n1)C(=O)O [Ceftazidime, ceftazidime, reference compound] | > | 64
CO/N=C(\C(=O)N[C@@H]1C(=O)N2C(C(=O)[O-])=C(C[N+]3(C)CCCC3)CS[C@H]12)c1csc(N)n1 [Cefepime, reference compound] | > | 64
CNC(C)C1CCC(N)C(OC2C(N)CC(N)C(OC3OCC(C)(O)C(NC)C3O)C2O)O1 (centres unmarked) [Gentamicin, gentamicin, reference compound] | = | 32
